test: Mouse pharmacokinetics (oral gavage / intravenous); type: in vivo, mice; conditions: mouse, plasma, po, 30 mg/kg, mouse, 30 mg/kg oral gavage; read-out: t1/2 p.o. (converted)
Quantity kind: half-life (h)
Just the number please, in h, no unit attached.

The following molecules have reported results that may help.
CC(C)N1CCN(c2ccc(Nc3ncc4cc5n(c4n3)C3(CCCCC3)CNC5=O)nc2)CC1 :: 3.5
CN1CCN(c2ccc(Nc3ncc4cc5n(c4n3)C3(CCCCC3)CNC5=O)nc2)CC1 :: 5

Query (molecule): "O=C1NCC2(CCCCC2)n2c1cc1cnc(Nc3ccc(N4CCNCC4)cn3)nc12" ; field requested: half-life
0.8

Can you share its half-life? I mean this molecule: "O=C1NCC2(CCCCC2)n2c1cc1cnc(Nc3ccc(N4CCC(N5CCOCC5)CC4)cn3)nc12"
3

====

Molecular target: CDK2/CyclinA (Homo sapiens (Human))
Test: CDK2/CyclinA kinase assay (Nanosyn, Caliper microfluidic)
Assay type: biochemical
Conditions: Table 2; read-out: CDK2/CycA IC50
Experimental: Selected compounds disclosed herein were tested in CDK4/cyclinD1, CDK6/CycD3 CDK2/CycA and CDK2/cyclinE kinase assays by Nanosyn (Santa Clara, Calif.) to determine their inhibitory effect on these CDKs. The assays were performed using microfluidic kinase detection technology (Caliper Assay Platform). The compounds were tested in 12-point dose-response format in singlicate at Km for ATP. […]
Parameter: log10(IC50). Scope: all listed entries.
Scale: decimal log of IC50, IC50 in µM.

Completed entries (count: 3):
C[C@@H](O)CN1CCN(c2ccc(Nc3ncc4cc5n(c4n3)C3(CCCC3)CNC5=O)nc2)C[C@@H]1C :: -0.10
CC(C)N1CCN(c2ccc(Nc3ncc4cc5n(c4n3)C3(CCCCC3)CNC5=O)nn2)CC1 :: -0.22
CC(C)(C)CCN1CCN(c2ccc(Nc3ncc4cc5n(c4n3)C3(CCCC3)CNC5=O)nc2)CC1(C)C :: -0.34

Observed log10(IC50) on CDK2/CyclinA (Homo sapiens (Human)) for "CC1(C)CN(c2ccc(Nc3ncc4cc5n(c4n3)C3(CCCCC3)CNC5=O)nc2)CCN1CC1CC1" , please.
-0.42

Return log10(IC50) measured with CDK2/CyclinA (Homo sapiens (Human)) given this compound: "C[C@@H](O)CN1CCN(c2ccc(Nc3ncc4cc5n(c4n3)C3(CCCCC3)CNC5=O)nc2)CC1"
-0.47

What value of log10(IC50) on CDK2/CyclinA (Homo sapiens (Human)) does "C[C@H]1CN(c2ccc(Nc3ncc4cc5n(c4n3)C3(CCCCC3)CNC5=O)nc2)CCN1CC1CC1" have?
0.28

Reported log10(IC50) for CDK2/CyclinA (Homo sapiens (Human)), given CC1CN(c2ccc(Nc3ncc4cc5n(c4n3)C3(CCCCC3)CNC5=O)nc2)CCN1CCC(C)(C)C (centres unmarked) ?
-0.19

Which measured log10(IC50) belongs to "O=C1NCC2(CCCC2)n2c1cc1cnc(Nc3ccc(N4CCOCC4)nn3)nc12" , tested on CDK2/CyclinA (Homo sapiens (Human))?
0.27

====

assay: Mouse pharmacokinetics (oral gavage / intravenous); assay type: in vivo, mice; conditions: plasma; mouse, 30 mg/kg oral gavage
Quantity kind: Cmax
The reply should read as a number followed by its unit.

Entry O=C1NCC2(CCCCC2)n2c1cc1cnc(Nc3ccc(N4CCC(N5CCOCC5)CC4)cn3)nc12 [Compound U] : reported Cmax = ?
4200 nM

Please give the measured Cmax for this compound: O=C1NCC2(CCCCC2)n2c1cc1cnc(Nc3ccc(N4CCNCC4)cn3)nc12 [Compound Q]
160 nM

What does the record list as Cmax for CC(C)N1CCN(c2ccc(Nc3ncc4cc5n(c4n3)C3(CCCCC3)CNC5=O)nc2)CC1 [Compound GG] ?
1900 nM

Which Cmax is reported for this compound? CN1CCN(c2ccc(Nc3ncc4cc5n(c4n3)C3(CCCCC3)CNC5=O)nc2)CC1 [Compound T]
2500 nM
